- Test target: T1, Human ST2 (human, UniProt Q01638 19-328, limits assumed)
- T1 construct: also called human ST2 protein; Interleukin 1 receptor-like 1
- T1 sequence (looked up): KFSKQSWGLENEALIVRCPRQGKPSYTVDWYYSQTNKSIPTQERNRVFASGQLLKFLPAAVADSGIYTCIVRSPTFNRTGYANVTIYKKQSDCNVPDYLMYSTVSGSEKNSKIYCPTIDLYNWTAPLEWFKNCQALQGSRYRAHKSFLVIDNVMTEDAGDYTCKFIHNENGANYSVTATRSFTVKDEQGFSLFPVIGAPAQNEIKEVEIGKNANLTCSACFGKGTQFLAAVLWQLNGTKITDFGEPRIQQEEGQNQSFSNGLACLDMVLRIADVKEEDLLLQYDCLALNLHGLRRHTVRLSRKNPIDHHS
- Measurement notes: SPR (Carterra), antibody immobilized, ST2 analyte
Assay metric: koff
Write the quantity with the unit trailing the number.

Worked examples, 2 binders total:
| Binder | Experimental value |
| --- | --- |
| Human ST2 IgG1 Antibody 91 (antibody, V domains shown, IgG1; also called ST2 Antibody 91) VH: EVQLLESGGGLVKPGGSLRLSCAASGFTFSSYWMSWVRQAPGKGLEWVSVIYSGGSTYYADSVKGRFTISRDDSKNTLYLQMNSLKTEDTAVYYCARGLGWFDPWGQGTLVTVSS VL: DIQMTQSPSSLSASVGDRVTITCQANQHIGNSLNWYQQKPGKAPKLLIFAASRLQSGVPSRFSGSGSGTDFTLTISSLQPEDFATYYCQQSYGTPLTFGGGTKVEIKR | 0.041 s⁻¹ |
| Human ST2 IgG1 Antibody 56 (antibody, V domains shown, IgG1; also called ST2 Antibody 56) VH: EVQLLESGGGLVKPGGSLRLSCAASGFTFSSYAMSWVRQAPGKGLEWVSSISSDSYYKYHADSVKGRFTISRDDSKNTLYLQMNSLKTEDTAVYYCAKGADYDFWSGYLDYWGQGTLVTVSS VL: DIQMTQSPSSLSASVGDRVTITCRASQGISSYLAWYQQKPGKAPKLLIYRASTLQSGVPSRFSGSGSGTDFTLTISSLQPEDFATYYCQQSYNTPWTFGQSTKVEIKR | 0.14 s⁻¹ |

Below: the item to evaluate.
[Q] Give koff for Human ST2 IgG1 Antibody 48 (antibody, V domains shown, IgG1; also called ST2 Antibody 48) VH: EVQLLQSGGGLVQPGGSLRLSCAASEFTFSNAWMSWVRQAPGKGLEWVSTISGTSRYTYYADSVKGRFTISRDNSKNSLYLQMNSLRAEDTAVYYCARDQDGRLDYWGQGTLVTVSS VL: DIQMTQSPSSLSASVGDRVTITCRASQNIGSWLAWYQQKPGKAPKLLIYRASTLQSGVPSRFSGSGSGTDFTLTISSLQPEDFATYYCQQSYSTPYTFGQGTKVEIKR
[A] 0.024 s⁻¹

Source listed as patent US20210403579A1.
